- System: MS2 coat protein
- assay-text: apparent KD of MS2 coat protein; designed switch direction (-1 OFF switch, 1 ON switch): 1; higher = weaker reporter binding
- conditions-used: Eterna round: R95; input ligand: none

monomer-sequence	apparent KD of MS2 coat protein, nM
GGUGAGAGAGUCAAGGAUAUUAAAGGAGAGACAUGAGGAUCACCCAUGUAAGAGAGAGAGGAGAGUGAGAAGGUGAAGAGAGUGG [Altered State 2-25 - Jieux - Same State 2] (puzzle: Same State 2)	60.6
AGUGAACAUGAGGAUCACCCAUGUGAGAGGGAUGUAGGAUAUGUAAGGAAGUAAGAUGGAACAGAAGGACAAAGUG [JR_SS!_Sub067] (puzzle: Same State 1)	50.4
AGUCCAGCCUGAGCUGGACAAAAGCGUGUACAUGAGGAUCACCCAUGUCAUGUACAAGCUUUUUGCUCGUCUUAAAA [Zipper 46 - 7] (puzzle: Sensor for hsa-mir-208a)	69.8
AAAAUUUCUGCACAGGAUAUGUAGUGUUUCACAUGAGGAUCACCCAUGUCAAAACCAGAGACUGUACAGAAGGGUGCGGUCGGAC [Onedxequ] (puzzle: Same State 2)	14.6
AGUCCAGCCUGAGCUGGACAGAAGCAUGUACAUGAGGAUCACCCAUGUCAUGUACAAGCUUUUUGCUCGUCUUAAUA [Zipper 49 - 3] (puzzle: Sensor for hsa-mir-208a)	641
CCGCGCUGUCGAGAGGAUAUGCGGUGAUGGACAUGAGGAUCACCCAUGUUAGCGAUAGCAUUACUGUAGAAGGCUCUACGGCGGC [JL-ss2-3.09 ViennaUCT mod] (puzzle: Same State 2)	11.9
GACAAUCUAUCUGAGGAUAUCAUGAAGAAAACAUGAGGAUCACCCAUGUGCAGGAUAACUGCAAAUGAGAAGGCAGAUAGAUUGU [Mat - Same State 2 - Mod - D6] (puzzle: Same State 2)	22.4
AGCAUACAUGAGGAUCACCCAUGUCAACUUAGUCGAGGAUAUGGGCAGCCGUGAGGCGAACCAGAAGGCGAAUUGA [Mat - Same State 1 - Mod of JL - D2] (puzzle: Same State 1)	26.2
AGUCCAGCCUGAGCUGGACAAAAGCAUGUACAUGAGGAUCACCCAUGUUCAUGUACAAGCUUUUUGCUCGUCUUAUA [salish99_208a_r3_043] (puzzle: Sensor for hsa-mir-208a)	697
AACAAUCUAUCUGAGGAUAUCAUGAAAUAAACAUGAGGAUCACCCAUGUGCAGGAAAACUGCAUAUGAGAAGGCAGAUAGUUUGA [salish99_ss2_r3_056] (puzzle: Same State 2)	855
GGAGCCGGCACCGAGGAUAUUCAUAUUAAAACAUGAGGAUCACCCAUGUAGGCCAGAAGGCUUUGGGAGAAGGCGGAUCGGCUCG [Xeonanis - 3] (puzzle: Same State 2)	546
UGGAUCUAGGCUUGCCUGGGUCCAUGCUGACAUGAGGAUCACCCAUGUGCAUUCUAUAAGCUUUUUGCUUGUCAGCU (puzzle: Sensor for hsa-mir-208a)	441
AGGCAAGCUUUUUGCUGGUAUGGAGGAUAACAUGAGGAUCACCCAUGUAUUGGAGGUGUUGUGGAUUUGAGAAAGAA [JR_SHM208A_Sub004] (puzzle: Sensor for hsa-mir-208a)	103
AGUCCAGCGAAAGCUGGACAAAAGUAUGUACAUGAGGAUCACCCAUGUUCAUGUACAAGCUUUUUGCUCGUUUUAAA [JL mod - D95 - 19] (puzzle: Sensor for hsa-mir-208a)	928
UCUUGGUUUUUGCUCGUUUUUUGUGUUGAACAUGAGGAUCACCCAUGUAUUGUACGGUCCAAUUUGGUGGUAGUCCG [JMF 68] (puzzle: Sensor for hsa-mir-208a)	46.9
UGAAAACAUGAGGAUCACCCAUGUAUUAUUAUGGGAGGAUAUGGGAAUUAAUUAAUUAAACCAGAAGGCCUAAAGU [Mat - Same State 1 - D89] (puzzle: Same State 1)	52.6
ACAGCGAAACAUGAGGAUCACCCAUGUAAAGAAUAGGUGAAUUGUUGCUCGUCUUGAAGAGAAGAGAAGAAGGAGAG [Victory 1] (puzzle: Sensor for hsa-mir-208a version 2)	180
GGUCCAGCCUGAGCUGGACAAAAGCAUGUACAUGAGGAUCACCCAUGUUCAUGUACAAGCUUUUUGCUCGUCUUAUA [salish99_208a_r3_045] (puzzle: Sensor for hsa-mir-208a)	696
AUAAUAAUAAGUCAGGAUAUGUUGAUAAAGACAUGAGGAUCACCCAUGUGAAAUAAAAUAAUAAUACAGAAGGGACAAUAAUAAA [JMF's solution 3] (puzzle: Same State 2)	265
UAGAGAGGAAGCGAGGAUAUCGUGUUAGGUACAUGAGGAUCACCCAUGUUUUAAGUAGAGAUAGGCGAGAAGGCGCAGGAGAAGA [JR_SS2_Sub089] (puzzle: Same State 2)	28

###

- Tested on: MS2 coat protein
- assay-text: apparent KD of MS2 coat protein; designed switch direction (-1 OFF switch, 1 ON switch): 1; higher = weaker reporter binding
- conditions-used: input ligand: FMN 200 uM

monomer-sequence	apparent KD of MS2 coat protein
UGGUACAUGGGAGGAUAUCUCAUGGAGACAUGAGGAUCACCCAUGUAGUAGGACCGGAAACGGUGAGAGAAGGCCCAUGUACCU [JL SSNG1 3.73] (Eterna round: R96, puzzle: Same State NG 2)	26.6 nM
ACAUGACAUGACAUGAGGAUCACCCAUGUGAGGAUCACCCGGGAGGAUAUAGCCCAUGUGGAUCACUAGAAGGCCCUGAGGAUC [Same State NG3 S1] (Eterna round: R96, puzzle: Same State NG 3)	36.4 nM
GCUAGUAUUAUUGCUAACAUGAGGAUCACCCAUGUAUGUUGGCAGGAUAUCGUUUGCUUUGCAAACGAGAAGGGCUAAACUAGC [JL SSNG3 1.05] (Eterna round: R96, puzzle: Same State NG 3)	25.8 nM
UUAAUUUACUGAGGAUAUCGUGUCGUCUGAUUUGACAUGAGGAUCACCCAUGUGUGAAGUGGUAUCGAGAAGGCAGUUUUCUUA [JR_SSNG2_Sub027] (Eterna round: R96, puzzle: Same State NG 2)	24.2 nM
UGGCUCAGAGCAGGAUAUAUGUCUCGAGCUUCGGCUCGAGACAUGAGGAUCACCCAUGUAAUAACAUAGAAGGGCUCUGAGCCU [SSNG2/1-B3] (Eterna round: R96, puzzle: Same State NG 2)	15.8 nM

###

- System: MS2 coat protein
- assay-text: apparent KD of MS2 coat protein; designed switch direction (-1 OFF switch, 1 ON switch): 1; higher = weaker reporter binding
- conditions-used: Eterna round: R95; input ligand: FMN 200 uM
The following sequences are shown together with reported apparent KD of MS2 coat protein values.

monomer-sequence	units-symbol	apparent KD of MS2 coat protein
AACUUACUAUCUCAGGAUAUCAUGUCAAAGACAUGAGGAUCACCCAUGUACCAGGAAACUGGUUAUGAGAAGGGAGAUAGUAAGA [Mat - Same State 2 - Mod - D49] (puzzle: Same State 2)	nM	167
GGAGAACAUGAGGAUCACCCAUGUGGAUGGGCGCUAGGAUAUGCGAGAGGGUGAAGAGAAGCAGAAGGAGUGGAUA [JR_SS1_Sub036] (puzzle: Same State 1)	nM	101
UAGAAACAUGAGGAUCACCCAUGUGUCAAAGACAUAGGAUAUCAUAACUGGCGCCAGUUAUGAGAAGGGUGGUAAA [Belezaqu] (puzzle: Same State 1)	nM	33.8

###

- Tested on: K4 kissing-loop RNA reporter;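 note: bound reporter read as fluorescence of individual clusters on recovered sequencing chips by microscopy, with normalized cluster intensities fitted with a binding model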
- assay-text: apparent KD of K4 kissing-loop reporter; higher = weaker reporter binding
- conditions-used: Eterna round: R107; input ligand: FMN 200 uM
Binary call on apparent KD of K4 kissing-loop reporter: label 1 from 100 nM upward, label 0 beneath that.

monomer-sequence	answer-label
UACAGGGAUAGUGAUGUUAUCCCAUGUGAUACCAGUGUCAUCCAACACCCUUGGCAGCAUACGGGCAGUGAUGUUGUUCUUGGUA [#17 K4 Theophylline A Exclusion]	label 0
UGCAGUGAUGUUGCUAUUUUUCUUGAUUAACGAGGACCGGUACGGCCGCCACUCGAUUUCUCUCUAGUCCAGUAUGUUGUUUGAU [whbob_EX_Tryp_A_t5]	label 0
GCGCGGCUCAGUGAUGUUGAGCCUCGGAAACGAGGACCGGUACGGCCGCCACUCGUCCGCGCAGCUGAGGCAAAAGCCUCGGCUA [Omei KL Tryp A SS B v2]	label 1
GCAGUGAUGUUGCGCGGGUACGGUAGAGUACGAGGACCGGUACGGCCGCCACUCGUACGGAACUGGCUAAUUUAUGGAAUGGUGA [IV]	label 1
CCGAUGGGUACAGGAUAUGCCAGUGAUGUUGGUUUAGAUGGACCCAGAAGGAGACACCAGACGGAGGCAGAAGGGUAGCAAGGGA [Raarriis]	label 1
GAAAUCACGGAUGAUACCAGCCAGAACUCUCACAGUGAUGUUGUGCUUAAAUGAUUAGGAGGCCCUUGGCAGCAUACGCUAAUUU [theeternabot_sameState_KL_Theo_B_36]	label 1
